Test system: T27A cells
Assay: Inhibition of T27A cell proliferation by [3H]thymidine incorporation
Assay type: cell-based, murine
Details: Mus musculus, 24 h, read-out: IC50 (dose for 50% inhibition of proliferation)
pIC50: −log10 of the molar value.

{"compound": "CN(Cc1cnc2nc(N)nc(N)c2n1)c1ccc(C(=O)N[C@@H](CCC(=O)O)C(=O)O)cc1 [MTX, methotrexate]", "pIC50": 7.51}
